Where these numbers come from: ChEMBL document CHEMBL5154675

assay-remarks: Clearance in Sprague-Dawley rat at 2 mg/kg, iv administered as single dose measured up to 24 hrs
Type: ADME, organism-based
assay-conditions: in vivo
measurement-type: clearance (mL/min/kg)

In [3]: df
Out[3]:
                         chemical_structure  observed
0  CC(=O)c1cc(C(=O)Nc2cc(CO)cc(-c3cnn(C)c3)c2F)c2cc(N)ccn12       118

* * *

target-or-system: Bromodomain-containing protein 2 (Homo sapiens, UniProt P25440)
Sequence (P25440 whole entry, looked up): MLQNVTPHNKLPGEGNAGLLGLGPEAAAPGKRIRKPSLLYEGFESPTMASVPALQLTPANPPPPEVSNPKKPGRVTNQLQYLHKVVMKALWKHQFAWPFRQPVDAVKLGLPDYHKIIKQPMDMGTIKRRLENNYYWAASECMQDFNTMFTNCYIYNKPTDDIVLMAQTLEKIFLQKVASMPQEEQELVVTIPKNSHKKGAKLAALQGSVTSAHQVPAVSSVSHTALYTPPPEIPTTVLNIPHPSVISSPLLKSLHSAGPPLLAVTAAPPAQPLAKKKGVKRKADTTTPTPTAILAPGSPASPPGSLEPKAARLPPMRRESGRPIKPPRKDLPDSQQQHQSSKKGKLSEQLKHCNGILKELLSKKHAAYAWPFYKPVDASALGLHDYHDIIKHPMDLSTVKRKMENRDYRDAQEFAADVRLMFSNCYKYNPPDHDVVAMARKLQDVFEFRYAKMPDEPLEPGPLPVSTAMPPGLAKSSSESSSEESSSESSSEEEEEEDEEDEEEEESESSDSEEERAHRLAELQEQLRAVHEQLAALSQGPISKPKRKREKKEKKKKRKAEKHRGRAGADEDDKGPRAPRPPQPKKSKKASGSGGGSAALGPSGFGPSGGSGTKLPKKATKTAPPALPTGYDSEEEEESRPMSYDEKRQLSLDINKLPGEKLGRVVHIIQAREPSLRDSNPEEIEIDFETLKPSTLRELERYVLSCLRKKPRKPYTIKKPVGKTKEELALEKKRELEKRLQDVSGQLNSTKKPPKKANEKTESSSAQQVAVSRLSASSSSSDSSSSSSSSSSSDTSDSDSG
assay-conditions: dose 200.0 µM, time 30.0 min
We begin with a simple list: items and their reported ΔTm.
measurement-type: ΔTm (°C)

In [3]: df
Out[3]:
                                   compound  measurement_type  observed
0  C[C@@H]1CC(=O)Nc2cccc(-c3ccc4c(c3)c(-c3cnn(C)c3)nn4C)c2N1               ΔTm         1
1  CC(=O)c1cc(C(=O)Nc2cc(CO)cc(-c3cnn(C)c3)c2F)c2cc(N)ccn12               ΔTm       2.3
2  CC(=O)c1cc(C(=O)Nc2cc(C(C)O)cc(-c3cnn(C4CC4)c3)c2F)c2cc(N)ccn12 (stereo unspecified)               ΔTm       1.3
3  COc1ccn2c(C(C)=O)cc(C(=O)Nc3cc(C(C)O)cc(-c4cnn(C5CC5)c4)c3F)c2c1 (stereo unspecified)               ΔTm         1
4  CO[C@H]1CC[C@H](n2c([C@@H]3CCCC(=O)N3c3ccc(F)c(F)c3)nc3cc(-c4c(C)noc4C)ccc32)CC1 [INOBRODIB]               ΔTm       2.3
5  CC(=O)c1cc(C(=O)Nc2cc(CO)cc(-c3cnn(C4CC4)c3)c2F)c2cc(OC(=O)N(C)C)ccn12               ΔTm         0
